Data origin, for the record: paper PMC3156385

Target: P450 1A1 (Homo sapiens)
Sequence (P04798 whole entry): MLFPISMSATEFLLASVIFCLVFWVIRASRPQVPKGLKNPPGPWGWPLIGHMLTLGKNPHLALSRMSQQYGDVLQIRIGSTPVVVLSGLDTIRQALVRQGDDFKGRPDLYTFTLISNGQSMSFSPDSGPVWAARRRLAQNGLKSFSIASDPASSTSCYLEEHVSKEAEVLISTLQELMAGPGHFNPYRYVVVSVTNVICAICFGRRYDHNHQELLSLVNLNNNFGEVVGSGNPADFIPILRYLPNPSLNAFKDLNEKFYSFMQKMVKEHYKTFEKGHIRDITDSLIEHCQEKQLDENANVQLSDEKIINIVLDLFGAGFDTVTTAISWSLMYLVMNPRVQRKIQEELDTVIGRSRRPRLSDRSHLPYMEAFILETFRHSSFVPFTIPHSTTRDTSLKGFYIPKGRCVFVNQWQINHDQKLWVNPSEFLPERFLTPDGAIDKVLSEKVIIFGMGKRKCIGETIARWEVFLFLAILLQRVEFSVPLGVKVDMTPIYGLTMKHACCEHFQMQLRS
Assay: Spectral binding titration with purified recombinant P450 1A1
Conditions: Reverse Type I binding; 1 µM P450
measurement-type: ΔAmax/Ks

Worked set:
molecule="N#C[Se]Cc1cccc(C[Se]C#N)c1 [m-XSC, 1,3-phenylenebis(methylene)selenocyanate]" measured_result="0.60 × 10^−3"
molecule="N#C[Se]Cc1ccc(C[Se]C#N)cc1 [p-XSC, 1,4-phenylenebis(methylene)selenocyanate]" measured_result="0.45 × 10^−3"
molecule="N#C[Se]Cc1ccccc1 [BSC, benzyl selenocyanate]" measured_result="0.61 × 10^−3"

Query: For the molecule N#C[Se]Cc1ccccc1C[Se]C#N [o-XSC, 1,2-phenylenebis(methylene)selenocyanate] , give its reported ΔAmax/Ks.
Response: 0.77 × 10^−3

* * *

Target: P450 2A6 (Homo sapiens, UniProt P11509)
Assay: Spectral binding titration with purified recombinant P450 2A6
Details: Type I binding; 1 µM P450; means ± SE
Item-by-item account of ΔAmax

compound="N#C[Se]Cc1ccccc1C[Se]C#N [o-XSC, 1,2-phenylenebis(methylene)selenocyanate]" measurement_type=ΔAmax measured_result="40 ± 0.82 × 10^−3"
compound="N#C[Se]Cc1ccc(C[Se]C#N)cc1 [p-XSC, 1,4-phenylenebis(methylene)selenocyanate]" measurement_type=ΔAmax measured_result="31 ± 1.2 × 10^−3"

Query: For the compound N#C[Se]Cc1ccccc1 [BSC, benzyl selenocyanate] , give its reported ΔAmax.
Response: 66 ± 0.93 × 10^−3

Query: For the compound N#C[Se]Cc1cccc(C[Se]C#N)c1 [m-XSC, 1,3-phenylenebis(methylene)selenocyanate] , give its reported ΔAmax.
Response: 37 ± 0.88 × 10^−3

* * *

Molecular target: P450 1A2 (Homo sapiens)
Sequence (P05177 whole entry): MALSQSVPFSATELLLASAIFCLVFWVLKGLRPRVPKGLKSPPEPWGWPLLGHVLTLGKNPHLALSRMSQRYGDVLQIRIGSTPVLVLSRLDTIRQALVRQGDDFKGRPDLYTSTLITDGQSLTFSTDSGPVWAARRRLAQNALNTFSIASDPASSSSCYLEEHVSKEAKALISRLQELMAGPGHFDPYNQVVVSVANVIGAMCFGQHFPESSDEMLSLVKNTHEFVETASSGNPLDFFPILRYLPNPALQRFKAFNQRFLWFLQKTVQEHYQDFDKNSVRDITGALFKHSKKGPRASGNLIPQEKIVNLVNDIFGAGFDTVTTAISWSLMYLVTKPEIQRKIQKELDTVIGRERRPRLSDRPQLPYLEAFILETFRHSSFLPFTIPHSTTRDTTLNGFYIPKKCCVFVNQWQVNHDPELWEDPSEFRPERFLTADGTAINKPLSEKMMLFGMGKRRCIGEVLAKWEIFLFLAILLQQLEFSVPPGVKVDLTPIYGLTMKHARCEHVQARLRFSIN
Assay: Spectral binding titration with purified recombinant P450 1A2
Conditions: Reverse Type I binding; 1 µM P450
Item-by-item account of ΔAmax/Ks

compound="N#C[Se]Cc1ccccc1C[Se]C#N [o-XSC, 1,2-phenylenebis(methylene)selenocyanate]" measurement_type=ΔAmax/Ks measured_result="0.38 × 10^−3"
compound="N#C[Se]Cc1ccccc1 [BSC, benzyl selenocyanate]" measurement_type=ΔAmax/Ks measured_result="0.88 × 10^−3"
compound="N#C[Se]Cc1ccc(C[Se]C#N)cc1 [p-XSC, 1,4-phenylenebis(methylene)selenocyanate]" measurement_type=ΔAmax/Ks measured_result="0.81 × 10^−3"

Query: Name the value of ΔAmax/Ks reported for N#C[Se]Cc1cccc(C[Se]C#N)c1 [m-XSC, 1,3-phenylenebis(methylene)selenocyanate] when tested on P450 1A2 (Homo sapiens).
Response: 0.46 × 10^−3

* * *

Target: UniProt P04798
Assay: Spectral binding titration with purified recombinant P450 1A1
Conditions: Reverse Type I binding; 1 µM P450; means ± SE
Item-by-item account of ΔAmax

Worked set:
molecule="N#C[Se]Cc1cccc(C[Se]C#N)c1 [m-XSC, 1,3-phenylenebis(methylene)selenocyanate]" measured_result="18 ± 1.2 × 10^−3"
molecule="N#C[Se]Cc1ccccc1 [BSC, benzyl selenocyanate]" measured_result="14 ± 1.0 × 10^−3"
molecule="N#C[Se]Cc1ccc(C[Se]C#N)cc1 [p-XSC, 1,4-phenylenebis(methylene)selenocyanate]" measured_result="8.6 ± 0.24 × 10^−3"

Then this molecule:
Query: For the molecule N#C[Se]Cc1ccccc1C[Se]C#N [o-XSC, 1,2-phenylenebis(methylene)selenocyanate] , give its reported ΔAmax.
Response: 20 ± 1.2 × 10^−3

* * *

Item-by-item account of ΔAmax/Ks
Target: P450 1B1 (Homo sapiens, UniProt Q16678)
Sequence (Q16678 whole entry): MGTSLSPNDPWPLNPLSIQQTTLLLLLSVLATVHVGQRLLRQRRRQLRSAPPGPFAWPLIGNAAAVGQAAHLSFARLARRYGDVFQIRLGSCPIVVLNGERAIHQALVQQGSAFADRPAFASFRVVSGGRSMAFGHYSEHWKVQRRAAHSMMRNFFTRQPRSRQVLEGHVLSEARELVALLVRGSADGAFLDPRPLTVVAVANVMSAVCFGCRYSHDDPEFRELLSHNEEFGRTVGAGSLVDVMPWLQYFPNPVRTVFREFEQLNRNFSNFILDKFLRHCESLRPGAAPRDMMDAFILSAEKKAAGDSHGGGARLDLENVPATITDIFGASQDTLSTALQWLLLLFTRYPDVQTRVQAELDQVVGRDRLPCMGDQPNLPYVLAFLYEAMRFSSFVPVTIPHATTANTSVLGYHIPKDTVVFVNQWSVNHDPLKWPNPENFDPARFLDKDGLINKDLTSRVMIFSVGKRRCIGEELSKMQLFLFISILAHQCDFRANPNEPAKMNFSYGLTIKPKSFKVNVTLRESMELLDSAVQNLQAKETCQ
Experiment: Spectral binding titration with purified recombinant P450 1B1
Conditions: Reverse Type I binding; 1 µM P450

molecule="N#C[Se]Cc1ccc(C[Se]C#N)cc1 [p-XSC, 1,4-phenylenebis(methylene)selenocyanate]" target_under_test="P450 1B1 (Homo sapiens, UniProt Q16678)" measured_result="5.83 × 10^−3"

Query: Name the value of ΔAmax/Ks reported for N#C[Se]Cc1ccccc1 [BSC, benzyl selenocyanate] when tested on P450 1B1 (Homo sapiens, UniProt Q16678).
Response: 3.60 × 10^−3

Query: Name the value of ΔAmax/Ks reported for N#C[Se]Cc1cccc(C[Se]C#N)c1 [m-XSC, 1,3-phenylenebis(methylene)selenocyanate] when tested on P450 1B1 (Homo sapiens, UniProt Q16678).
Response: 3.70 × 10^−3

Query: Name the value of ΔAmax/Ks reported for N#C[Se]Cc1ccccc1C[Se]C#N [o-XSC, 1,2-phenylenebis(methylene)selenocyanate] when tested on P450 1B1 (Homo sapiens, UniProt Q16678).
Response: 3.30 × 10^−3

* * *

Entries below carry reported IC50 on P450 1B1 (Homo sapiens, UniProt Q16678).
// note: answer is a bare numeric in nM

Worked set:
compound="N#C[Se]Cc1ccc(C[Se]C#N)cc1 [p-XSC, 1,4-phenylenebis(methylene)selenocyanate]" output_unit=nM measured_result=160
compound="N#C[Se]Cc1ccccc1 [BSC, benzyl selenocyanate]" output_unit=nM measured_result=270

Then this compound:
Query: Name the value of IC50 reported for N#C[Se]Cc1ccccc1C[Se]C#N [o-XSC, 1,2-phenylenebis(methylene)selenocyanate] when tested on P450 1B1 (Homo sapiens, UniProt Q16678).
Response: 140

* * *

Item-by-item account of ΔAmax
Molecular target: UniProtKB P05177
Test: Spectral binding titration with purified recombinant P450 1A2
Details: Reverse Type I binding; 1 µM P450; means ± SE

Worked set:
compound="N#C[Se]Cc1ccc(C[Se]C#N)cc1 [p-XSC, 1,4-phenylenebis(methylene)selenocyanate]" measured_result="9.7 ± 0.40 × 10^−3"
compound="N#C[Se]Cc1ccccc1 [BSC, benzyl selenocyanate]" measured_result="9.5 ± 0.57 × 10^−3"
compound="N#C[Se]Cc1ccccc1C[Se]C#N [o-XSC, 1,2-phenylenebis(methylene)selenocyanate]" measured_result="2.4 ± 0.20 × 10^−3"

Then this compound:
Query: For the compound N#C[Se]Cc1cccc(C[Se]C#N)c1 [m-XSC, 1,3-phenylenebis(methylene)selenocyanate] , give its reported ΔAmax.
Response: 5.8 ± 0.25 × 10^−3

* * *

Molecular target: P450 2A6 (Homo sapiens, UniProt P11509)
Assay: Spectral binding titration with purified recombinant P450 2A6
Conditions: Type I binding; 1 µM P450
Item-by-item account of ΔAmax/Ks

Worked set:
compound="N#C[Se]Cc1ccccc1C[Se]C#N [o-XSC, 1,2-phenylenebis(methylene)selenocyanate]" target_under_test="P450 2A6 (Homo sapiens, UniProt P11509)" measurement_type=ΔAmax/Ks measured_result="7.80 × 10^−3"
compound="N#C[Se]Cc1cccc(C[Se]C#N)c1 [m-XSC, 1,3-phenylenebis(methylene)selenocyanate]" target_under_test="P450 2A6 (Homo sapiens, UniProt P11509)" measurement_type=ΔAmax/Ks measured_result="6.50 × 10^−3"

Query: For the compound N#C[Se]Cc1ccc(C[Se]C#N)cc1 [p-XSC, 1,4-phenylenebis(methylene)selenocyanate] , give its reported ΔAmax/Ks.
Response: 2.20 × 10^−3

Query: For the compound N#C[Se]Cc1ccccc1 [BSC, benzyl selenocyanate] , give its reported ΔAmax/Ks.
Response: 32.00 × 10^−3

* * *

Target: P450 2A6 (Homo sapiens)
Sequence (P11509 1-494): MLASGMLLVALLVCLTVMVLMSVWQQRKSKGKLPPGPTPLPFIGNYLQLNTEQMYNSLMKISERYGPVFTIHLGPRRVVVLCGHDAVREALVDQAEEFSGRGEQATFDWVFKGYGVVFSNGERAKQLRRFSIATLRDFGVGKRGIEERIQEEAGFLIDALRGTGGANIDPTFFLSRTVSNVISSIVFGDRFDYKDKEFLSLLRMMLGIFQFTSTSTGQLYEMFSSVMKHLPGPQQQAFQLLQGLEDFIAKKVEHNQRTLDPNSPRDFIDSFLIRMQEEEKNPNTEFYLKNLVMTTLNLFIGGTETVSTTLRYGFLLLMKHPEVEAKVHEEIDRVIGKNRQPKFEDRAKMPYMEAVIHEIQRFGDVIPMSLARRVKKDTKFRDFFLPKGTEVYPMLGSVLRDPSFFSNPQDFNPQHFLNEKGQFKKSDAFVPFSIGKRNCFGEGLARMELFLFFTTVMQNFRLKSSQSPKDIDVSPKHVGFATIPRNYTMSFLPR
Assay: Spectral binding titration with purified recombinant P450 2A6
measurement-type: pKd
pKd is a log-scale quantity: -log10 of the concentration expressed in molar.

Worked set:
compound="N#C[Se]Cc1ccc(C[Se]C#N)cc1 [p-XSC, 1,4-phenylenebis(methylene)selenocyanate]" measured_result=4.85
compound="N#C[Se]Cc1ccccc1C[Se]C#N [o-XSC, 1,2-phenylenebis(methylene)selenocyanate]" measured_result=5.29
compound="N#C[Se]Cc1ccccc1 [BSC, benzyl selenocyanate]" measured_result=5.70

Query: Name the value of pKd reported for N#C[Se]Cc1cccc(C[Se]C#N)c1 [m-XSC, 1,3-phenylenebis(methylene)selenocyanate] when tested on P450 2A6 (Homo sapiens).
Response: 5.24
